- assay-system: Ecm22 (UniProt Q05958)
- Sequence: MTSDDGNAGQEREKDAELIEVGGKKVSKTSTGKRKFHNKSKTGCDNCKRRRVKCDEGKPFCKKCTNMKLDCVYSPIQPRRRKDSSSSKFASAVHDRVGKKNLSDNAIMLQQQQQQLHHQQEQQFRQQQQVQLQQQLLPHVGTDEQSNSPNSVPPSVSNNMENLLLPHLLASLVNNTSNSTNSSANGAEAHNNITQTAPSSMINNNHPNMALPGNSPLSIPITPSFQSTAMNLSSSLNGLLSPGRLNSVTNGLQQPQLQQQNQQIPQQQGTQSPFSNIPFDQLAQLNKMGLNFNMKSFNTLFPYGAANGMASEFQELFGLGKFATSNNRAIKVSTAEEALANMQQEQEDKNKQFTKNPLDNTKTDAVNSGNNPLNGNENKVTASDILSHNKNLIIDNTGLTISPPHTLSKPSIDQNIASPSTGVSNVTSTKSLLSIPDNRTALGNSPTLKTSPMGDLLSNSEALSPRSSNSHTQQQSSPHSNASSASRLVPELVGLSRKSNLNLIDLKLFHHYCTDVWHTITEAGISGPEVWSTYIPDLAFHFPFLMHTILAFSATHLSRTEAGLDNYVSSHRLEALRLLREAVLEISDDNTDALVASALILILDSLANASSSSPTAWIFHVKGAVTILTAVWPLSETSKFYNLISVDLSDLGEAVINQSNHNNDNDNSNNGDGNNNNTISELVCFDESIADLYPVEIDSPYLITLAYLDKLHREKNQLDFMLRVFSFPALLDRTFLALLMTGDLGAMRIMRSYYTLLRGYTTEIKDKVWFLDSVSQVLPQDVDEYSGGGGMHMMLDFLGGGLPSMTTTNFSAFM
- assay-explanation: PBM E-score (8-mer binding enrichment) (E-score (-0.5 to 0.5)); higher = stronger / more preferred TF binding
- condition-parameters: protein concentration: 200 nM; construct: GST-full length
The full ranking holds about 33,000 sequences; the median of “E-score (-0.5 to 0.5)” is about -0.041, and the highest 2% start at about 0.37. The full list was thinned out, with the highest values kept by preference.
Reported PBM E-score values for a set of sequences
metric-name: PBM E-score

* CGGCACTA | -0.0606
* GGTTAAAC | 0.116
* AAACGACG | 0.465
* ACACGACT | 0.117

###

Reported PBM E-score values for a set of sequences
- assay-system: Ecm22 (UniProt Q05958)
- Sequence: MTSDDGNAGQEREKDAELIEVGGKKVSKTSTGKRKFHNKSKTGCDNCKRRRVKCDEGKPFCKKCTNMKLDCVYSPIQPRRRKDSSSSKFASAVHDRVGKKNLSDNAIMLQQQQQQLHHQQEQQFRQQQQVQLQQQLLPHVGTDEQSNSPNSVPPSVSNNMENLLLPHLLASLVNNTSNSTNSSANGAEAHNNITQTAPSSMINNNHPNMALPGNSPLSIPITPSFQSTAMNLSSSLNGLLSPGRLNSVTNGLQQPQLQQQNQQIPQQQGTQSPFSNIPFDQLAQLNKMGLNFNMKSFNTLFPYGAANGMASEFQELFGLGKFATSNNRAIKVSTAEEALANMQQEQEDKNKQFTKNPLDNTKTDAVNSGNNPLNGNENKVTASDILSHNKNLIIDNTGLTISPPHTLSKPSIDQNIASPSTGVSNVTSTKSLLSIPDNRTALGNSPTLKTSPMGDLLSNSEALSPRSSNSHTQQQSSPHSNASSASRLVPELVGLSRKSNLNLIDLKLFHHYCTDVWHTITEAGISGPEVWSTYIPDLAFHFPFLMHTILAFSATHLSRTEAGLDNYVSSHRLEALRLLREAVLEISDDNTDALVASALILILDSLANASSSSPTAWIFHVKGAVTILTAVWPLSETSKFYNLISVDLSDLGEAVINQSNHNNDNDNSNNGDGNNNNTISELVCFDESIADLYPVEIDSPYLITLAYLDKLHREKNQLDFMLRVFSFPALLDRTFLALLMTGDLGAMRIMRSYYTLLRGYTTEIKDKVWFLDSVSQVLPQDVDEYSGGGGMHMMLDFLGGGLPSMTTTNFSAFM
- assay-explanation: PBM E-score (8-mer binding enrichment) (E-score (-0.5 to 0.5)); higher = stronger / more preferred TF binding
- condition-parameters: protein concentration: 200 nM; construct: GST-full length
The full ranking holds about 33,000 sequences; the median of “E-score (-0.5 to 0.5)” is about -0.041, and the highest 2% start at about 0.37. Many of the other results were omitted from the sample, so the highest values are more common in it than they were.
metric-name: PBM E-score

* AACTTAGA | -0.0444
* GGTTACGA | 0.381
* AATTCAGA | -0.0476
* ACTCACGG | 0.034
* AGATCAGC | -0.106
* AGTTTATC | 0.0904
* GGTTTATA | 0.152
* GTACGGAC | 0.372
* ACGTTCGC | 0.157

###

- assay-system: Ecm22 (UniProt Q05958)
- Sequence: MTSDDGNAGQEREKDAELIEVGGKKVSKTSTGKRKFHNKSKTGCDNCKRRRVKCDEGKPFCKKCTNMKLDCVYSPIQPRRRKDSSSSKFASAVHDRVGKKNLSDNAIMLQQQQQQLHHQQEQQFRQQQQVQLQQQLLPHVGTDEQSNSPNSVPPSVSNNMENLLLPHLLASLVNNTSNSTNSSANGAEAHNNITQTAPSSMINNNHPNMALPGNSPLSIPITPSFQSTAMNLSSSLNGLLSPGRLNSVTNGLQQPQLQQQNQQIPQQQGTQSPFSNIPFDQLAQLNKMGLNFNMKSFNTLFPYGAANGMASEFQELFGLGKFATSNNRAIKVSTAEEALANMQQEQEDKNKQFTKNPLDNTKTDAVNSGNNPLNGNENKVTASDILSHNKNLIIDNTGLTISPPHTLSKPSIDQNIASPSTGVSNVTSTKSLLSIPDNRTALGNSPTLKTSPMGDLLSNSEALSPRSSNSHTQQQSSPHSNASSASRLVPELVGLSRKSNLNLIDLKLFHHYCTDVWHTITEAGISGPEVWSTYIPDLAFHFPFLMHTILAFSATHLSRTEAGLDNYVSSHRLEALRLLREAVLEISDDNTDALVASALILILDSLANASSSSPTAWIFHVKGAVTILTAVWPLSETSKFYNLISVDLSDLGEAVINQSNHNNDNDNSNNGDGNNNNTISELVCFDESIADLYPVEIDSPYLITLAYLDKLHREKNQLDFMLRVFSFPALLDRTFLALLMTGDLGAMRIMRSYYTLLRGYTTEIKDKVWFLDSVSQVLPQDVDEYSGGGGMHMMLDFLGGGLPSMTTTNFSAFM
- assay-explanation: PBM E-score (8-mer binding enrichment) (E-score (-0.5 to 0.5)); higher = stronger / more preferred TF binding
- condition-parameters: protein concentration: 200 nM; construct: GST-full length
The full ranking holds about 33,000 sequences; the median of “E-score (-0.5 to 0.5)” is about -0.041, and the highest 2% start at about 0.37. Shown is part of a subset that was picked to be rich in the highest values.
Param threshold (0.08) applies to PBM E-score; output met when value >= threshold, not met when value < threshold.

- CTTACCTA: not met
- TAGAACGA: met
- ACTCGTAT: met
- CTCACGAC: not met
- AGCTGAAA: not met
- AATACGTC: met
- AGGCAACT: not met
- CCGCGTAC: met
- CTTACGAC: met
- AGCCTGTC: not met
- AAGAACGG: met
- TAGAACCA: not met
- CAAGGACA: not met

###

Reported PBM E-score values for a set of sequences
- assay-system: Ecm22 (UniProt Q05958)
- Sequence: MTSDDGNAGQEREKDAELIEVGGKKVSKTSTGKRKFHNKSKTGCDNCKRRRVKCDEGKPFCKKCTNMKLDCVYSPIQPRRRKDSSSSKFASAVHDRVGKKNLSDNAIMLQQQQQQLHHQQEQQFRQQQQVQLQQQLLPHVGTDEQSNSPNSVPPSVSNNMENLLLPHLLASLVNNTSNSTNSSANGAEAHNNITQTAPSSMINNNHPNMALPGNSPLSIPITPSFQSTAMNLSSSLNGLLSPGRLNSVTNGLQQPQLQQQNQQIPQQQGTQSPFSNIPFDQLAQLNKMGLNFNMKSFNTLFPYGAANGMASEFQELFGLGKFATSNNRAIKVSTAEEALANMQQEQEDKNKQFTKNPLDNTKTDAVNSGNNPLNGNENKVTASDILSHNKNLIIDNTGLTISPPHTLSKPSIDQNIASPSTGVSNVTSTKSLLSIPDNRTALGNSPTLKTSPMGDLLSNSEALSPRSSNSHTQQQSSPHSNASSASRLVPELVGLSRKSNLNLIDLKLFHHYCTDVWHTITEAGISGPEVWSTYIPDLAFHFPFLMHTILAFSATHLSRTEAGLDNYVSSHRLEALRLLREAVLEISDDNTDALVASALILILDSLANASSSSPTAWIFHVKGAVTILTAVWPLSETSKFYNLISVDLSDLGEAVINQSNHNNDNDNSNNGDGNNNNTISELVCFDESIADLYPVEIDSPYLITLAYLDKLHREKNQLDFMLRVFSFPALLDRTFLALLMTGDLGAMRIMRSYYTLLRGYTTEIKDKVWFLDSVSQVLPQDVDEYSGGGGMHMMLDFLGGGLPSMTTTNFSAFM
- assay-explanation: PBM E-score (8-mer binding enrichment) (E-score (-0.5 to 0.5)); higher = stronger / more preferred TF binding
- condition-parameters: protein concentration: 200 nM; construct: GST-full length
The full ranking holds about 33,000 sequences; the median of “E-score (-0.5 to 0.5)” is about -0.041, and the highest 2% start at about 0.37. What follows is part of a selection rich in the highest values, with near analogues and random picks from the rest.
metric-name: PBM E-score

- CGGGAACC: 0.0199
- GTATAAAC: 0.403
- CGAGGACA: 0.0726
- GGTATACC: 0.0922
- CGGGAACA: 0.165
- CCGAGATA: 0.186
- ATATAAAC: 0.212
- TACGATGA: 0.438
- ACGCGAGA: 0.281
- ATGCACCA: -0.108
- CTAAGGGA: 0.0248
- ACGAACAC: 0.318
- ACAATCGC: 0.226
- AGTATACA: 0.0981
- ACGAGCAA: 0.288
- CCGAGCTA: 0.101
- CGTATACG: 0.489
- TGTATACA: 0.0967
- ACGAACAT: 0.386
- CGAATACG: 0.362
- AGGGAACC: 0.00984
- ACGAACAG: 0.282
- GGCGTTGA: -0.126
